Test system: 695427-040-R-J1-PDC complex spheroid viability
experimental-details: Anticancer human tumor 695427-040-R-J1-PDC patient-derived colon adenocarcinoma cell line growth inhibition [POLQ]
condition-summary: second compound 1 µM; first compound 10 µM; active compounds read low
Each entry belongs to exactly one class, chosen by where its viability, T/C falls: lo (below 60%), med (60% to below 90%), hi (90% or more)

Example cases with answers are listed next.
[[record]]
compound = "COc1cc2cc(C(=O)CCC(=O)O)sc2cc1OC + COC1C(OC(N)=O)C(O)C(Oc2ccc3c(O)c(NC(=O)c4ccc(O)c(CC=C(C)C)c4)c(=O)oc3c2C)OC1(C)C"
assigned_class = "hi"

[[record]]
compound = "O=c1[nH]cc(F)c(=O)[nH]1 + Nc1ccc(C#CCN(C(=O)Cc2ncc(C(F)(F)F)cc2C(F)(F)F)c2ccc(F)cc2)nn1"
assigned_class = "hi"

[[record]]
compound = "CCCS(=O)(=O)Nc1ccc(F)c(C(=O)c2c[nH]c3ncc(-c4ccc(Cl)cc4)cc23)c1F + COC1C(OC(N)=O)C(O)C(Oc2ccc3c(O)c(NC(=O)c4ccc(O)c(CC=C(C)C)c4)c(=O)oc3c2C)OC1(C)C"
assigned_class = "med"

[[record]]
compound = "COc1ccc([C@@H](O)c2cc(-c3ncnc4cc(N5CCOCC5)ccc34)c(F)cc2Cl)nn1 + COC1C(OC(N)=O)C(O)C(Oc2ccc3c(O)c(NC(=O)c4ccc(O)c(CC=C(C)C)c4)c(=O)oc3c2C)OC1(C)C"
assigned_class = "lo"

[[record]]
compound = "Nc1ccn(C2OC(CO)C(O)C2(F)F)c(=O)n1 (stereo unspecified) + COC1C(OC(N)=O)C(O)C(Oc2ccc3c(O)c(NC(=O)c4ccc(O)c(CC=C(C)C)c4)c(=O)oc3c2C)OC1(C)C"
assigned_class = "lo"


Which band does COc1cc(C2c3cc4c(cc3C(OC3OC5COC(C)OC5C(O)C3O)C3COC(=O)C23)OCO4)cc(OC)c1O (stereo unspecified) + COC1C(OC(N)=O)C(O)C(Oc2ccc3c(O)c(NC(=O)c4ccc(O)c(CC=C(C)C)c4)c(=O)oc3c2C)OC1(C)C fall in?
med

# classify by viability, T/C band: COc1cccc2c1C(=O)c1c(O)c3c(c(O)c1C2=O)CC(O)(C(=O)CO)CC3OC1CC(N)C(O)C(C)O1 (stereo unspecified) + Cc1cccc(N(C)C(=O)C2C(O)CCN2c2nc(C)cc(C(F)(F)F)c2C#N)c1
lo

Field: class (viability, T/C) — entry: CC1COCCN1c1cc(C2(O)CC3CCC(C2)O3)c2cnn(-c3ccn[nH]3)c2n1 (stereo unspecified) + Nc1ccc(C#CCN(C(=O)Cc2ncc(C(F)(F)F)cc2C(F)(F)F)c2ccc(F)cc2)nn1
lo

Class? Entry: Nc1ccn(C2OC(CO)C(O)C2(F)F)c(=O)n1 (stereo unspecified) + Nc1ccc(C#CCN(C(=O)Cc2ncc(C(F)(F)F)cc2C(F)(F)F)c2ccc(F)cc2)nn1
med

Entry CCCS(=O)(=O)Nc1ccc(F)c(C(=O)c2c[nH]c3ncc(-c4ccc(Cl)cc4)cc23)c1F + Nc1ccc(C#CCN(C(=O)Cc2ncc(C(F)(F)F)cc2C(F)(F)F)c2ccc(F)cc2)nn1 belongs to which category?
med

Place this compound in its band: COc1ccc([C@@H](O)c2cc(-c3ncnc4cc(N5CCOCC5)ccc34)c(F)cc2Cl)nn1 + Cc1cccc(N(C)C(=O)C2C(O)CCN2c2nc(C)cc(C(F)(F)F)c2C#N)c1
lo

In plain terms, what class is O=C(c1cc(Cc2n[nH]c(=O)c3ccccc23)ccc1F)N1CCN(C(=O)C2CC2)CC1 + Nc1ccc(C#CCN(C(=O)Cc2ncc(C(F)(F)F)cc2C(F)(F)F)c2ccc(F)cc2)nn1 ?
hi

Each compound maps to one class by viability, T/C. Which class for CCCS(=O)(=O)Nc1ccc(F)c(C(=O)c2c[nH]c3ncc(-c4ccc(Cl)cc4)cc23)c1F + Cc1cccc(N(C)C(=O)C2C(O)CCN2c2nc(C)cc(C(F)(F)F)c2C#N)c1 ?
med

Hi there! Could you help me figure out the category for CC1COCCN1c1cc(C2(S(C)(=N)=O)CC2)nc(-c2ccnc3[nH]ccc23)n1 (stereo unspecified) + Cc1cccc(N(C)C(=O)C2C(O)CCN2c2nc(C)cc(C(F)(F)F)c2C#N)c1 please?
med

Where would C=CC(=O)N1CCN(c2nc(=O)n(-c3c(C)ccnc3C(C)C)c3nc(-c4c(O)cccc4F)c(F)cc23)C(C)C1 (stereo unspecified) + Cc1cccc(N(C)C(=O)C2C(O)CCN2c2nc(C)cc(C(F)(F)F)c2C#N)c1 land among the classes by reported viability, T/C?
hi

# classify by viability, T/C band: CC(C)n1c(=O)n(C)c2cnc3cc(F)c(-c4ccc(OCCCN5CCCCC5)nc4)cc3c21 + COC1C(OC(N)=O)C(O)C(Oc2ccc3c(O)c(NC(=O)c4ccc(O)c(CC=C(C)C)c4)c(=O)oc3c2C)OC1(C)C
med

Please classify: CC1COCCN1c1cc(-c2ccnn2C)c2ccnc(-c3ccn[nH]3)c2n1 (stereo unspecified) + COC1C(OC(N)=O)C(O)C(Oc2ccc3c(O)c(NC(=O)c4ccc(O)c(CC=C(C)C)c4)c(=O)oc3c2C)OC1(C)C
lo

Hey, which category is C#Cc1c(F)ccc2cc(O)cc(-c3ncc4c(N5CC6CCC(C5)N6)nc(OCC56CCCN5CC(F)C6)nc4c3F)c12 (stereo unspecified) + Nc1ccc(C#CCN(C(=O)Cc2ncc(C(F)(F)F)cc2C(F)(F)F)c2ccc(F)cc2)nn1 in, do you know?
med

====

Test system: 695427-040-R-J1-PDC complex spheroid viability
experimental-details: Anticancer human tumor 695427-040-R-J1-PDC cell line growth inhibition [POLQ];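 further: spheroids exposed to compounds for seven days; 100% = DMSO vehicle control viability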
condition-summary: second compound 10 µM; first compound 1 µM; active compounds read low
Method: Multicellular complex tumor spheroid response to Polymerase (POL) inhibitors (novobiocin, ART-558, RP6685) in combination with a variety of drugs and investigational agents in selected tumor cell lines The POL inhibitors (novobiocin, ART-558, and RP6685) were evaluated both individually and in combination with standard of care and investigational anticancer small molecules within a complex spheroid model of solid tumors. . […]
measurement-kind: viability, T/C

Solved cases (8 shown):
[[record]]
compound = "CNCc1ccc(-c2[nH]c3cc(F)cc4c3c2CCNC4=O)cc1 + COC1C(OC(N)=O)C(O)C(Oc2ccc3c(O)c(NC(=O)c4ccc(O)c(CC=C(C)C)c4)c(=O)oc3c2C)OC1(C)C"
measurement_kind = "viability, T/C"
assay_result = "109%"

[[record]]
compound = "CC1COCCN1c1cc(C2(O)CC3CCC(C2)O3)c2cnn(-c3ccn[nH]3)c2n1 (stereo not given) + COC1C(OC(N)=O)C(O)C(Oc2ccc3c(O)c(NC(=O)c4ccc(O)c(CC=C(C)C)c4)c(=O)oc3c2C)OC1(C)C"
measurement_kind = "viability, T/C"
assay_result = "63.9%"

[[record]]
compound = "C#Cc1c(F)ccc2cc(O)cc(-c3ncc4c(N5CC6CCC(C5)N6)nc(OCC56CCCN5CC(F)C6)nc4c3F)c12 (stereo not given) + Cc1cccc(N(C)C(=O)C2C(O)CCN2c2nc(C)cc(C(F)(F)F)c2C#N)c1"
measurement_kind = "viability, T/C"
assay_result = "84.7%"

[[record]]
compound = "O=c1[nH]cc(F)c(=O)[nH]1 + COC1C(OC(N)=O)C(O)C(Oc2ccc3c(O)c(NC(=O)c4ccc(O)c(CC=C(C)C)c4)c(=O)oc3c2C)OC1(C)C"
measurement_kind = "viability, T/C"
assay_result = "101%"

[[record]]
compound = "COc1cc2cc(C(=O)CCC(=O)O)sc2cc1OC + Cc1cccc(N(C)C(=O)C2C(O)CCN2c2nc(C)cc(C(F)(F)F)c2C#N)c1"
measurement_kind = "viability, T/C"
assay_result = "89.5%"

[[record]]
compound = "Nc1ccn(C2OC(CO)C(O)C2(F)F)c(=O)n1 (stereo not given) + Nc1ccc(C#CCN(C(=O)Cc2ncc(C(F)(F)F)cc2C(F)(F)F)c2ccc(F)cc2)nn1"
measurement_kind = "viability, T/C"
assay_result = "84.6%"

[[record]]
compound = "O=C(Nc1ccc(O)c(NS(=O)(=O)c2ccc(F)cc2)c1)c1ccc(-c2ccccc2)cc1 + Nc1ccc(C#CCN(C(=O)Cc2ncc(C(F)(F)F)cc2C(F)(F)F)c2ccc(F)cc2)nn1"
measurement_kind = "viability, T/C"
assay_result = "94.7%"

[[record]]
compound = "CCc1cc2c(N3CCc4c(cc(Cn5ccnc5)cc4-c4cn(C)nc4C(F)(F)F)C3=O)ccnc2c(OC)n1 + Cc1cccc(N(C)C(=O)C2C(O)CCN2c2nc(C)cc(C(F)(F)F)c2C#N)c1"
measurement_kind = "viability, T/C"
assay_result = "97.8%"


Which viability, T/C is listed for CCc1c2c(nc3ccc(O)cc13)-c1cc3c(c(=O)n1C2)COC(=O)[C@]3(O)CC + Nc1ccc(C#CCN(C(=O)Cc2ncc(C(F)(F)F)cc2C(F)(F)F)c2ccc(F)cc2)nn1 ?
57.1%

Request the reported viability, T/C associated with C=CC(=O)N1CCN(c2nc(=O)n(-c3c(C)ccnc3C(C)C)c3nc(-c4c(O)cccc4F)c(F)cc23)C(C)C1 (stereo not given) + Cc1cccc(N(C)C(=O)C2C(O)CCN2c2nc(C)cc(C(F)(F)F)c2C#N)c1
101%
